// values below are reported normalized RNA/DNA level with ligand (log10)
B1: library; a variant is named by its letters at N, in order (parent)
chain: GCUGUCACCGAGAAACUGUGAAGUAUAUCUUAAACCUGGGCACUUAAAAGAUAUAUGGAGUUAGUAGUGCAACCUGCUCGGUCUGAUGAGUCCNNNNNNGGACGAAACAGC

variants of: B1; assay: normalized RNA/DNA level with ligand (relative to sTRSVctl = 100) (log10 (% of sTRSVctl)); HEK293T; ligand: cyclic di-GMP (c-di-GMP-II aptamer); ligand concentration (+) RNA-Seq: 1 mM; higher = less ribozyme self-cleavage, higher mRNA level; conditions: reporter: mCherry (pCS4076), ligand present: yes
Respond using a number only.

>>> print(df.to_string())
   mutant_designation  reported_measurement
0              UGGUCG                  1.89
1              CCUCCC                  1.89
2              CCGUGA                   1.7

Now consider the entry below.
-- ask Which normalized RNA/DNA level with ligand (log10) value belongs to AAACGA ?
-- reply 1.57
